System: ATXN2-luc
method: MSSR pilot screen: ATXN2-luc luciferase assay (Bright-Glo) in H2 cells, single 10 μM dose
Assay type: cell-based, human
run_conditions: pilot screen; absolute score divided by 1SD (0.891 or 0.9)
Where a name gives a salt, the structure may show the parent alone.
measurement_label: ¦Score/1SD¦
Lab note: jot the number down without any unit.

Reference set, count: 3
compound	tested_system	measurement_label	quantitative_result
C[C@@H]1O[C@@H](O[C@H]2CC[C@]3(C=O)[C@H]4CC[C@]5(C)[C@@H](C6=CC(=O)OC6)CC[C@]5(O)[C@@H]4CC[C@]3(O)C2)[C@H](O)[C@H](O)[C@H]1O	ATXN2-luc	¦Score/1SD¦	4.10
CC(C)=CCc1c(O)cc2occ(-c3ccc4c(c3)OCO4)c(=O)c2c1O	ATXN2-luc	¦Score/1SD¦	4.02
[H]/N=C(/NCCCCC)N/N=C/c1c[nH]c2ccc(OC)cc12 [TEGASEROD MALEATE]	ATXN2-luc	¦Score/1SD¦	4.01

Alright, here's another compound for you.
Req: # lookup: ¦Score/1SD¦ of CC(C)c1cc(/C=C(\C#N)C(=O)NCCCc2ccccc2)cc(C(C)C)c1O
Resp: 5.48

---

System: ATXN2-luc
method: MSSR pilot screen: ATXN2-luc luciferase assay (Bright-Glo) in H2 cells, single 10 μM dose
Format: cell-based, human
run_conditions: pilot screen; absolute score divided by 1SD (0.891 or 0.9)
Where a name gives a salt, the structure may show the parent alone.
Label t when ¦Score/1SD¦ is strictly below 4; otherwise label f.

compound	tested_system	assigned_class
C[C@@H]1O[C@@H](O[C@H]2C[C@@H](O)[C@]3(CO)[C@H]4[C@H](O)C[C@]5(C)[C@@H](C6=CC(=O)OC6)CC[C@]5(O)[C@@H]4CC[C@]3(O)C2)[C@H](O)[C@H](O)[C@H]1O	ATXN2-luc	f
C[C@H]1O[C@@H](O[C@H]2[C@@H](O)C[C@H](O[C@H]3[C@@H](O)C[C@H](O[C@H]4CC[C@@]5(C)[C@H](CC[C@@H]6[C@@H]5C[C@@H](O)[C@]5(C)[C@@H](C7=CC(=O)OC7)CC[C@]65O)C4)O[C@@H]3C)O[C@@H]2C)C[C@H](O)[C@@H]1O	ATXN2-luc	f

Req: Report whether reported ¦Score/1SD¦ is lower than 4 (strictly) for CCN(CC)CCCCCCCCOC(=O)c1cc(OC)c(OC)c(OC)c1
Resp: f

Req: Hello, I'm reviewing records and need to know if ¦Score/1SD¦ of CC[C@H]1CN2CCc3cc(OC)c(OC)cc3[C@@H]2C[C@@H]1C[C@H]1NCCc2cc(OC)c(OC)cc21 [Emetine dihydrochloride] is below 4. Could you check?
Resp: f

---

Overview of reported ¦Score/1SD¦ across a group of compounds:
Tested on: ATXN2-luc
method: MSSR pilot screen: ATXN2-luc luciferase assay (Bright-Glo) in H2 cells, single 10 μM dose
Type: cell-based, human
run_conditions: pilot screen; absolute score divided by 1SD (0.891 or 0.9)

compound	¦Score/1SD¦
C[C@H]1O[C@@H](O[C@H]2CC[C@]3(C=O)[C@H]4CC[C@]5(C)[C@@H](C6=CC(=O)OC6)CC[C@]5(O)[C@@H]4CC[C@]3(O)C2)C[C@H](O)[C@@H]1O [Helveticoside]	3.07
C[C@]12CC[C@H]3[C@@H](CC[C@]4(O)C[C@@H](O)CC[C@]34C=O)[C@@]1(O)CC[C@@H]2C1=CC(=O)OC1 [STROPHANTHIDIN]	4.95
COc1ccc(CCCOC(Cn2ccnc2)c2ccc(OC)cc2)cc1 (centres unmarked) [SKF-96365]	3.05

Req: Give the measured ¦Score/1SD¦ of COc1cccc(C2(O)CCCCC2CN(C)C)c1 (centres unmarked) [Tramadol] .
Resp: 3.79

Req: Report ¦Score/1SD¦ for O=c1[nH]c(=O)n([C@H]2C[C@H](O)[C@@H](CO)O2)cc1C(F)(F)F [Trifluridine] please.
Resp: 5.79

Req: GET /values?readout=¦Score/1SD¦&item= CCCCCCCCCOc1ccc2[nH]cc(CCN)c2c1 [5-Nonyloxytryptamine]
Resp: 4.01

Req: Name the reported ¦Score/1SD¦ value associated with the compound CO[C@H]1[C@@H](O)[C@@H](C)O[C@@H](O[C@H]2CC[C@]3(C)[C@H]4CC[C@]5(C)[C@@H](C6=CC(=O)OC6)CC[C@]5(O)[C@@H]4CC[C@]3(O)C2)[C@@H]1O [EMICYMARIN]
Resp: 3.42

Req: So what does the record say about ¦Score/1SD¦ for CC(=O)Oc1cccc(O)c1 [RESORCINOL MONOACETATE] ?
Resp: 6.94
